Details: PAMPA
Where a SMILES comes first, the peptide text is derived from it. [ ]: non-standard residue; d: D form. NMeF = CN[C@@H](Cc1ccccc1)C(=O)O; NMeL = CN[C@@H](CC(C)C)C(=O)O; dNMeL = CN[C@H](CC(C)C)C(=O)O
OBSERVATION_TYPE: PAMPA_R1

COMPOUND	VALUE
CC[C@H](C)[C@@H]1NC(=O)[C@H](C(C)C)NC(=O)[C@@H](CC(C)C)N(C)C(=O)[C@H](Cc2ccccc2)N(C)C(=O)[C@H]2CCCN2C(=O)[C@H](C(C)C)NC(=O)[C@@H](C)NC(=O)[C@H](CC(C)C)N(C)C(=O)[C@H]2CCCN2C(=O)[C@@H](Cc2ccccc2)NC1=O [Design D10.9] (cyclo(I[dF][dP][NMeL][dA]V[dP][NMeF][dNMeL]V))	BQL
CC(C)C[C@@H]1NC(=O)[C@H](C(C)C)NC(=O)[C@@H](C)NC(=O)[C@H](C)NC(=O)[C@@H]2CCCN2C(=O)[C@H]2CCCN2C(=O)[C@@H](C)NC(=O)[C@H]2CCCN2C(=O)[C@@H]2CCCN2C1=O [Design D9.34, PRO ALA DALA VAL LEU PRO DPRO DALA DPRO] (cyclo(A[dA]VLP[dP][dA][dP]P))	BQL

Ref: paper PMC9490236
